Quick reference for Kd among some binders
Molecular target: T1, Recombinant CD81 human protein, large extracellular loop (LEL, Phe113-Lys201), Alexa Fluor 488-labeled (human, UniProt P60033 113-201, Alexa Fluor 488 dye (succinimidyl ester labeling))
T1 construct: two additional amino acids (Gly and Pro) at the N-terminus of the LEL; CD81, human, large extracellular loop (LEL), Phe113-Lys201; also called CD81 protein; CD81 LEL; source: bought: Sino Biological (Cat. No. 14244-HNCH); labeled with the Alexa Fluor 488 protein labeling kit
T1 sequence: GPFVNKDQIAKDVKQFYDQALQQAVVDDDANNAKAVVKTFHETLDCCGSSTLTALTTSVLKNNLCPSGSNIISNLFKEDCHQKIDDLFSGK
Test: peptide or protein array; candidate peptides and control AAAA on cellulose membrane, blocked with 3% BSA; Alexa488-labeled CD81 at 50 nM to 1 µM, room temperature, 3 h; AAAA-subtracted spot intensity fitted to the Hill equation; estimated KD
Details: both partners purified
Please reply with the bare figure in µM and do not write the unit itself.

FMKRLRKR (synthesized on a Fmoc-β-Alanine-activated cellulose membrane, last eight residues of human EWI-2 (immunoglobulin superfamily member 8); also called CD81-BP candidate; source: synthetic peptide, spot-synthesized on cellulose membrane (peptide array)) [P153 (FMKRLRKR), EWI-2-derived eight-residue peptide]; 12.6

Q: # return recorded Kd for entry ASRTYRLR (synthesized on a Fmoc-β-Alanine-activated cellulose membrane, eight-residue stretch of human EWI-2 (immunoglobulin superfamily member 8), between the Ig3 domain and the C-terminus; For the migration assay the peptide was made as a free powder on Rink amide resin; also called CD81-BP candidate; source: synthetic peptide, spot-synthesized on cellulose membrane (peptide array)) [P97 (ASRTYRLR), EWI-2-derived eight-residue peptide]
Result: 1.06

Q: # return recorded Kd for entry CFMKRLRK (synthesized on a Fmoc-β-Alanine-activated cellulose membrane, eight-residue stretch of human EWI-2 (immunoglobulin superfamily member 8), near the C-terminus; For the migration assay the peptide was made as a free powder on Rink amide resin; also called CD81-BP candidate; source: synthetic peptide, spot-synthesized on cellulose membrane (peptide array)) [P152 (CFMKRLRK), EWI-2-derived eight-residue peptide]
Result: 0.91

Q: # return recorded Kd for entry RSHRLRLH (synthesized on a Fmoc-β-Alanine-activated cellulose membrane, eight-residue stretch of human EWI-2 (immunoglobulin superfamily member 8), between the Ig3 domain and the C-terminus; also called CD81-BP candidate; source: synthetic peptide, spot-synthesized on cellulose membrane (peptide array)) [P132 (RSHRLRLH), EWI-2-derived eight-residue peptide]
Result: 1.63

Where do the numbers come from? From paper PMC10046862.
